// data source = the RNAGym collection of RNA variant scans (doi:10.7554/elife.80360)

B1: HDV Ribozyme (parent)
chain: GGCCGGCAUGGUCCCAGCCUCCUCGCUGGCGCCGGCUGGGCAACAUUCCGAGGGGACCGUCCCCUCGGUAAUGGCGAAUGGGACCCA

# Variants of: B1
# test details: self-cleavage, relative activity (ratio to wild type); higher = more cleavage; co-transcriptional
Recorded self-cleavage by entry

Field: example entries. Status: answers known.
GGCCGGCAUGGUCCCAGCCUCCUCGCUGGCGCCGGCUGGGCAACAUUCCGAGUGGACCGUCCCCUCGGUAAUGGCAAAUGGGACCCA [G53U G76A]    1.09
GGCCGGCAUGGUCCCAGCCUCCUCGCUGGCGCCGGCUGGGCAACAUUCCGAGGGGACCGUCCCCUCGGUAAUGGCGAAUGGGAUCCG [C84U A87G]    0.437
GGACGGCAUGGUCCCAGCCUCCUCGCUGGCGCCGGCUGGGCAACAUUCCGAGGGGACCGUCCCCUCGGUAAUGACGAAUGGGACCCA [C3A G74A]    0.0326
GGCCGGCAUGGUCCCAGCCUCCUCGCUGGCGUCGGCUGGGCAACAUUCCGAGGGGACCGUCCCCUCGGUAAUGGGGAAUGGGACCCA [C32U C75G]    0.17
GGCCGGCAUGGUCCCAGCCUCCUCGCUGGCGCCCGCUGGGCAACAUUCUGAGGGGACCGUCCCCUCGGUAAUGGCGAAUGGGACCCA [G34C C49U]    0.208
GGCCGGGAUGGUCCCAGCCUCCUCGCUGGCGCCGGCUGGGCAACAUUCCGAGGGGACCGUCCCCUUGGUAAUGGCGAAUGGGACCCA [C7G C66U]    0.231
GGCCGGCAUGGUCCCAGCCUCCUCGCUGGUGCCGGCUGGGCAACAUUCCGAGGGGUCCGUCCCCUCGGUAAUGGCGAAUGGGACCCA [C30U A56U]    0.782
GGCCGGCAUGGUCCCAGCCUCCUCGCUGGCGCCGGCUGGGCAACAUUCCGAGGGGACCGUCCCCUCAGUAAUGGCGGAUGGGACCCA [G67A A77G]    0.712
GGCCGGCAUGGUCCCAGCCUCCUCGCUGGCGCCGGCUGAGCAACAUUCCGAGGGUACCGUCCCCUCGGUAAUGGCGAAUGGGACCCA [G39A G55U]    0.356
GGCCGGCAUGGUCCCAGCCGCCUCGCUGGCGCCGGCUGGGCAACAUUCCGAGGGGACCGUCCCCUCGGUAAUGGCGAAUGGGACCCU [U20G A87U]    0.158

Query GGCCGGCAUGGUCCCAGCCUCCUCGCUGGCGCCGGCCGGGCAACAUUCCGAGGGCACCGUCCCCUCGGUAAUGGCGAAUGGGACCCA [U37C G55C] yields self-cleavage of 1.1

Query GGCCGGCAUGGUCCCAGCCUCCUCGCUGGCGCCGGCCGGGCAAUAUUCCGAGGGGACCGUCCCCUCGGUAAUGGCGAAUGGGACCCA [U37C C44U] yields self-cleavage of 0.529

Query GGCCGGCAUGGUCCCAGCCUCCUCGCUGGCGCCGGUUGGGCAACAUUCCGAGGGGACCGUCCCCUCUGUAAUGGCGAAUGGGACCCA [C36U G67U] yields self-cleavage of 0.431

Query GGCCGGCAUGGUCCCAGCCUCCUCGCUGGCGCCGGCUGGGCAACAUUCCGAGGCGACCGUCCCCUCGGUAAUGGCGACUGGGACCCA [G54C A78C] yields self-cleavage of 0.191
